src = PubChem BioAssay

assay: viability loss with induced miR-34 in A549 – imaging, A549 dox-inducible miR-34, nuclei and caspase counts, primary screen (AID 1347080); settings: A549 miR-34 inducible, Hoechst nuclei count, 48 h; measured here: relative caspase fold change +Dox/-Dox; note: test concentration not given here
Where a SMILES comes first, the peptide text is derived from it. The star is where a group is joined. Cbz = O=C(OCc1ccccc1)*
For each record, write down the corresponding fold change.
Write the number on its own, no unit after it.

State, in one line, measured fold change of CC(C)CC(C=O)NC(=O)C(CC(C)C)NC(=O)C(CC(C)C)NC(=O)OCc1ccccc1 (stereo not drawn) (Cbz-Leu-Leu-Leu-aldehyde; configuration not given here) 0.735

State, in one line, measured fold change of `N[C@H](CCCP(=O)(O)O)C(=O)O` 1.61

State, in one line, measured fold change of O=C(OC1C[N+]2(CCCOc3ccccc3)CCC1CC2)C(O)(c1cccs1)c1cccs1 (centres undefined) 1.31

State, in one line, measured fold change of `O=c1cc(-c2ccccc2F)[nH]c2cc3c(cc12)OCO3` 0.744

State, in one line, measured fold change of `Cc1csc2ncnc(-c3cccc4cccnc34)c12` 0.756

State, in one line, measured fold change of CO[C@H]1CC(O[C@@H]2/C(C)=C/C[C@@H]3C[C@@H](C[C@]4(CC[C@H](C)[C@@H](C5CCCCC5)O4)O3)OC(=O)[C@@H]3C=C(C)/C(=N/O)[C@H]4OC/C(=C\C=C\[C@@H]2C)[C@]43O)O[C@@H](C)C1O (some centres undefined) 3.74

State, in one line, measured fold change of `CCNc1nc(Nc2cc(F)c(C(=O)N3CCOCC3)cc2OC)ncc1C(F)(F)F` 0.418

State, in one line, measured fold change of CC(NC(=O)C(Cc1ccccc1)NC(=O)OCc1ccccc1)C(=O)CF (centres undefined) 0.415

State, in one line, measured fold change of Cc1ccc(C(=O)N(CCCN)C(c2oc3cc(Cl)ccc3c(=O)c2Cc2ccccc2)C(C)C)cc1 (centres undefined) 0.732

State, in one line, measured fold change of C[N+](C)(C)CCOP(=O)(O)OP(=O)([O-])OC[C@H]1O[C@@H](n2ccc(N)nc2=O)C(O)[C@H]1O (some centres undefined) 1.19

State, in one line, measured fold change of CNC1(C)[C@H]2CC[C@H](C2)C1(C)C (some centres undefined) 1.29

State, in one line, measured fold change of `Cc1ncc(-c2cc(C(=O)N(C)Cc3csc(C)n3)c3ccc(F)cc3n2)cn1` 2.05

State, in one line, measured fold change of `CCCCCC(=O)/C=C/[C@@H]1[C@@H](C/C=C\CCCC(=O)O)[C@@H](O)C[C@H]1O` 1.11

State, in one line, measured fold change of `CNC(=O)[C@H]1O[C@@H](n2cnc3c(NCc4ccc(I)cc4)nc(Cl)nc32)[C@H](O)[C@@H]1O` 1.05

State, in one line, measured fold change of Cc1onc(-c2c(F)cccc2Cl)c1C(=O)N[C@@H]1C(=O)N2C(C(=O)O)C(C)(C)S[C@H]12 (some centres undefined) 0.516

State, in one line, measured fold change of `CC=CC(=O)N(CC)c1ccccc1C` 1.8

State, in one line, measured fold change of `Clc1ccc2ncnc(NCc3ccc4c(c3)OCO4)c2c1` 1.41

State, in one line, measured fold change of `NC/C=C\C(=O)O` 1.8

State, in one line, measured fold change of `CC(=O)C(C)=O` 0.938

State, in one line, measured fold change of O=C(O)CCCCC1SC[C@@H]2NC(=O)N[C@H]12 (some centres undefined) 0.431

State, in one line, measured fold change of `CNc1ncnc2c1ncn2[C@@H]1O[C@H](CO)[C@@H](O)[C@H]1O` 1.48

State, in one line, measured fold change of `CCOC(=O)[C@H](CCc1ccccc1)N[C@@H](C)C(=O)N1[C@H](C(=O)O)C[C@H]2CCCC[C@@H]21` 0.831

State, in one line, measured fold change of CN1C2CC(OC(=O)[C@H](CO)c3ccccc3)CC1C1OC12 (some centres undefined) 0.75

State, in one line, measured fold change of `O=C(Nc1n[nH]c(-c2ccco2)n1)N1CCc2ccccc2C1` 0.879

State, in one line, measured fold change of `Cc1cc(C)nc(NS(=O)(=O)c2ccc(NC(=S)NC(=O)COc3ccc(Br)cc3Cl)cc2)n1` 1.42

State, in one line, measured fold change of C=C1CC[C@H]2[C@@](C)(CCC(O)[C@@]2(C)CO)C1CC=C1C(=O)OCC1O (some centres undefined) 0.896

State, in one line, measured fold change of CN1[C@@H]2CC[C@@H]1CC(OC(=O)C(O)c1ccccc1)C2 (some centres undefined) 0.78

State, in one line, measured fold change of `CCCCCC(=O)/C=C/C=C\C/C=C\C/C=C\CCCC(=O)O` 1.32

State, in one line, measured fold change of CCN1CCN(C(=O)NC(C(=O)NC2C(=O)N3C(C(=O)O)=C(CSc4nnnn4C)CS[C@H]23)c2ccc(O)cc2)C(=O)C1=O (some centres undefined) 0.724

State, in one line, measured fold change of `COc1ccc(C(=O)O)cc1` 0.667

State, in one line, measured fold change of `CC[C@H]1[C@@H]2C=C[C@@H]3[C@H]4C/C=C\C(=O)NCCC[C@@H]5NC(=O)C(=C5O)C(=O)CC[C@@H]4C[C@@H]3[C@H]2C[C@H]1C` 0.587

State, in one line, measured fold change of `CCCCc1ncc(C=C(Cc2cccs2)C(=O)O)n1Cc1ccc(C(=O)O)cc1` 0.882

State, in one line, measured fold change of `O=C(O)Cc1cc(=O)[nH]c(=O)[nH]1` 0.239

State, in one line, measured fold change of `O=C(O)c1ccc(-c2ccccc2Cl)o1` 0.416
